Origin of measurements: paper PMC8634879

System: HepG2 cells
ASSAY_PROCEDURE: Cell proliferation assay (MTT), HepG2
Type: cell-based
RECORDED_CONDITIONS: Homo sapiens, HepG2, Table 1, cell proliferation inhibition; read-out: IC50 (μM) HepG2
Recorded IC50, one value per entry.
Note: unit µM is implicit; provide only the numeric part.

>>> print(df.to_string())
                                   molecule  test_target  value_unit  quantitative_readout
0  COc1ccc(S(=O)(=O)NC2=C(C#N)C(c3ccc(C(F)(F)F)cc3)c3c(C)nn(-c4ccccc4)c3O2)cc1 (stereo not shown) [4p]  HepG2 cells          µM                  2.28

The reported HepG2 cells IC50 of Cc1nn(-c2ccccc2)c2c1C(c1ccc(C(F)(F)F)cc1)C(C#N)=C(NS(=O)(=O)c1ccc(C(F)(F)F)cc1)O2 (stereo not shown) [4q] is 8.65

The reported HepG2 cells IC50 of Cc1ccc(S(=O)(=O)NC2=C(C#N)C(c3ccncc3)c3c(C)nn(-c4ccccc4Cl)c3O2)cc1 (stereo not shown) [4u] is 8.71

The reported HepG2 cells IC50 of COc1cccc(C2C(C#N)=C(NS(=O)(=O)c3ccc(C)cc3)Oc3c2c(C)nn3-c2ccccc2Cl)c1 (stereo not shown) [4w] is 8.87

The reported HepG2 cells IC50 of Cc1ccc(S(=O)(=O)NC2=C(C#N)C(c3ccncc3)c3c(C)nn(-c4ccccc4)c3O2)cc1 (stereo not shown) [4l] is 9.2

The reported HepG2 cells IC50 of Cc1ccc(S(=O)(=O)NC2=C(C#N)C(c3ccsc3)c3c(C)nn(-c4ccccc4)c3O2)cc1 (stereo not shown) [4m] is 7.2

The reported HepG2 cells IC50 of Cc1ccc(S(=O)(=O)NC2=C(C#N)C(c3cccc(Br)c3)c3c(C)nn(-c4ccccc4)c3O2)cc1 (stereo not shown) [4f] is 8.83

The reported HepG2 cells IC50 of Cc1nn(-c2ccccc2)c2c1C(c1ccc(C(F)(F)F)cc1)C(C#N)=C(NS(=O)(=O)c1cccs1)O2 (stereo not shown) [4o] is 5.32
